// data source = PubChem BioAssay (NCI)

Listed below: TGI values for each entry.
Test system: NCI/ADR-RES ovarian
assay_name: NCI tumour cell line growth inhibition, 48 h

>  <molecule>
CC1(C)CC2C=C(C=O)C3(C=O)CC3(C)C2C1 (stereo unspecified)

>  <readout_kind>
TGI

>  <value>
5.21 µM

$$$$
>  <molecule>
Cc1c[nH]c(C(=O)O)c1-c1ccc2c(-c3ccccc3)nc3ccccc3n12

>  <readout_kind>
TGI

>  <value>
48.1 µM

$$$$
>  <molecule>
CC1OC(OC2CC(O)C3(CO)C4C(O)CC5(C)C(C6=CC(=O)OC6)CCC5(O)C4CCC3(O)C2)C(O)C(O)C1O (stereo unspecified)

>  <readout_kind>
TGI

>  <value>
< 0.0152 µM

$$$$

Query (molecule): CCOP(=O)(OCC)C(Cc1ccc(OC)c(OC)c1)N=C(c1ccccc1)c1ccccc1 (stereo unspecified) ; field requested: TGI
> 100 µM

Query (molecule): COC(=NCCC1=CCCCC1)OC ; field requested: TGI
> 100 µM

====

Tested on: K-562 leukemia
assay_name: NCI tumour cell line growth inhibition, 48 h
Listed below: TGI values for each entry.

Some molecules with recorded TGI:
>  <molecule>
COc1cc2c(cc1OC)C1(c3ccccc3)CN(C2)Cc2cc(OC)c(OC)cc21

>  <TGI>
> 100 µM

$$$$
>  <molecule>
CCOC(=O)c1cc(C2CCN(Cc3ccccc3)C2=O)c(C(=O)C(=[N+]=[N-])C(C)=O)[nH]1 (centres undefined)

>  <TGI>
> 100 µM

$$$$
>  <molecule>
CC1C/C(=N\N(C)C)C(C#N)(C#N)C1(C#N)C#N (centres undefined)

>  <TGI>
> 100 µM

$$$$

Query (molecule): C=C(CS(=O)(=O)c1ccccc1)[P+](c1ccccc1)(c1ccccc1)c1ccccc1 ; field requested: TGI
31.7 µM

Query (molecule): Cc1cc(NS(=O)(=O)c2ccc(NC(=O)c3cccc4c(Nc5ccc(S(=O)(=O)Nc6cc(C)on6)cc5)c5ccccc5nc34)cc2)no1 ; field requested: TGI
> 100 µM

Query (molecule): CC(=O)O[C@H]1CC[C@@]2(C)C(=CC[C@@H]3[C@@H]2CC[C@]2(C)C(=N/O)/C(=C/c4ccc([N+](=O)[O-])cc4)C[C@@H]32)C1 ; field requested: TGI
> 100 µM

Query (molecule): COC(=O)C1CCC(Nc2cccc(C(F)(F)F)c2)=N1 (centres undefined) ; field requested: TGI
> 100 µM

Query (molecule): CC(=O)NCCc1c[nH]c2ccc(Cl)cc12 ; field requested: TGI
> 100 µM

Query (molecule): C=C1CC(Cn2cc(C)c(=O)[nH]c2=O)(c2ccc(-c3ccccc3)cc2)OC1=O (centres undefined) ; field requested: TGI
2.3 µM

Query (molecule): CCOC(=O)C(=O)N=Nc1nc2c(O)c3ccccc3c(O)c2s1 ; field requested: TGI
12.7 µM

Query (molecule): c1ccc2sc(C3(N4CCCCC4)CCCCCC3)cc2c1 ; field requested: TGI
31 µM

Query (molecule): c1ccc2c(c1)nc1n2CSC1 ; field requested: TGI
> 100 µM

Query (molecule): CC(C)=CCc1c(C)cc2cc3c(c(O)c2c1O)C(O)=CC(=O)C3(CC=C(C)C)C/C=C(\C)CO (centres undefined) ; field requested: TGI
90.9 µM

Query (molecule): Cc1ccc(-n2c(Cn3nnc(-c4cccnc4)n3)nn(C3OC(COC(=O)c4ccccc4)C(OC(=O)c4ccccc4)C3OC(=O)c3ccccc3)c2=S)cc1 (centres undefined) ; field requested: TGI
> 100 µM

Query (molecule): Clc1ccc(-c2nn3ncccc3c2-c2ccnc(Nc3ccccc3)n2)cc1 ; field requested: TGI
> 25 µM

Query (molecule): CSc1ccc2c(cc1=O)C(NC(=O)c1ccc(OC(C)=O)cc1)CCc1cc(O)c(O)c(O)c1-2 (centres undefined) ; field requested: TGI
7.53 µM

Query (molecule): CC(=O)Nc1cc2c(cc1O)CC[C@@H]1[C@@H]2CC[C@]2(C)[C@@H](O)CC[C@@H]12 ; field requested: TGI
> 100 µM

Query (molecule): O=C(N/N=C1/C(=O)c2c3ccccc3cc3cccc1c23)c1cccc(Cl)c1 ; field requested: TGI
> 100 µM

Query (molecule): CC1(C)C[C@H]2C=C(C=O)[C@]34C[C@]3(C(=O)OC4O)[C@H]2C1 (some centres undefined) ; field requested: TGI
> 100 µM
